Measured pKi (UniProtKB P29597)
pKi: −log10 of the molar value.
Measure: pKi

Molecule: Cc1nc2cnc3[nH]ccc3c2n1[C@H]1CCC[C@@](C)(O)C1
pKi: 7.39
--
Molecule: COCCN1CCC(n2cnc3cnc4[nH]ccc4c32)CC1
pKi: 7.13
--
Molecule: CS(=O)(=O)NCc1nc2cnc3[nH]ccc3c2n1C1CC2CCC1C2 (stereo not drawn)
pKi: 8.19
--
Molecule: O=C1CN(Cc2nc3cnc4[nH]ccc4c3n2C2CCOCC2)CCN1
pKi: 5.77
--
Molecule: C[C@]1(O)CC[C@H](n2nnc3cnc4[nH]ccc4c32)CC1
pKi: 7.20
--
Molecule: N#Cc1cccc(CNC2CC(n3cnc4cnc5[nH]ccc5c43)C2)c1 (stereo not drawn)
pKi: 6.64

(I) CC1(C(=O)N2CCC[C@@H](n3cnc4cnc5[nH]ccc5c43)C2)CC1
(II) O=C(Cc1nc2cnc3[nH]ccc3c2n1C1CCCOC1)NCCn1ccnc1 (racemic)
// compare measured pKi, left I , right II , return larger Indicate your choice by writing its label.
I
(I: 7.90, II: 6.39)

(P) COCCN1CCC[C@@H](n2cnc3cnc4[nH]ccc4c32)C1
(Q) CN(Cc1nc2cnc3[nH]ccc3c2n1C1CCN(Cc2ccccc2)CC1)S(C)(=O)=O
Smaller pKi value, P vs Q ? Indicate your choice by writing its label.
P
(P: 5.98, Q: 6.59)

(a) CC(C)(C)OC(=O)N[C@H]1CC[C@@H](n2cnc3cnc4[nH]ccc4c32)C1
(b) CC(C)(C)OC(=O)N1CCC(N[C@H]2CC[C@H](n3cnc4cnc5[nH]ccc5c43)CC2)CC1
(c) O=C(NC1CCC(n2cnc3cnc4[nH]ccc4c32)CC1)OCc1cccnc1 (stereo not drawn)
Order these by pKi, descending, and give the full ranking. # respond with the labels, arranged in the requested order
b, c, a

(P) CN(C)CCOC(=O)N[C@H]1CC[C@H](n2cnc3cnc4[nH]ccc4c32)CC1
(Q) COc1ccc(CN2CCC[C@@H](n3cnc4cnc5[nH]ccc5c43)C2)cc1
(R) C[C@@H](O)c1nc2cnc3[nH]ccc3c2n1C1CCC(n2cncn2)CC1 (stereo partly drawn)
Task for the reader: rank each entry by its pKi, from the minimum upward. # respond with the labels, arranged in the requested order
Q, P, R
(Q: 6.04, P: 6.83, R: 7.41)

====

Target: JAK3 (Homo sapiens, UniProt P52333)
Construct: made in house; host or cells: SF9 insect cells (baculovirus)
Sequence (P52333 783-1124): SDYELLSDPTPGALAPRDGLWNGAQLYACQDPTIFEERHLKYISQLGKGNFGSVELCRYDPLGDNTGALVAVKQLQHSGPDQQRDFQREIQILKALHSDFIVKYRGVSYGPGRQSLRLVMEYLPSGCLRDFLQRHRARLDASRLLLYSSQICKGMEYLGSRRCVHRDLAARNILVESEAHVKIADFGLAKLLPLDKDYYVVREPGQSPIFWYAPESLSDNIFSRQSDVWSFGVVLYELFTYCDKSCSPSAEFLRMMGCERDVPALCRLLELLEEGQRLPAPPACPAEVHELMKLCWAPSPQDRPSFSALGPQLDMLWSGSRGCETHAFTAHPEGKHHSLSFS
Test: JAK3 inhibition (Table 4)
Assay type: biochemical
Conditions: read-out: JAK3 Ki
Measure: Ki (nM)

// below: answered compounds
Compound: Cc1nc2cnc3[nH]ccc3c2n1C1(C)CCN(C(=O)CC#N)CC1 [Example 741]
Assayed system: JAK3 (Homo sapiens, UniProt P52333)
Measure: Ki
Experimental result: 1130
//
Compound: O=S(=O)(N1CCC(n2cnc3cnc4[nH]ccc4c32)CC1)C(F)(F)F [Example 89]
Assayed system: JAK3 (Homo sapiens, UniProt P52333)
Measure: Ki
Experimental result: 283
//
Compound: CCN1CCC(n2c(CCNC(=O)OC)nc3cnc4[nH]ccc4c32)C(F)(F)C1 (centres unmarked) [Example 908]
Assayed system: JAK3 (Homo sapiens, UniProt P52333)
Measure: Ki
Experimental result: 16.3
//
Compound: C[C@@H](O)c1nc2cnc3[nH]ccc3c2n1C1CCNCC1(F)F (single isomer, unassigned) [Example 939]
Assayed system: JAK3 (Homo sapiens, UniProt P52333)
Measure: Ki
Experimental result: 5.58

(I) FC(F)c1nc2cnc3[nH]ccc3c2n1C1CCNCC1 [Example 307]
(II) N#CCCNC1CC(n2cnc3cnc4[nH]ccc4c32)C1 (centres unmarked) [Example 331]
(III) C[C@@H](O)c1nc2cnc3[nH]ccc3c2n1[C@@H]1CCNC1 [Example 687]
(IV) N#CCCN1CCC(n2c(CC3CCCO3)nc3cnc4[nH]ccc4c32)CC1 (centres unmarked) [Example 813]
(V) CC(C)Cc1nc2cnc3[nH]ccc3c2n1C1CCN(Cc2ccccc2)CC1 [Example 224]
Task for the reader: rank each entry by its Ki, from the minimum upward. # respond with the labels, arranged in the requested order
V, IV, II, I, III

(1) O=C(Cc1nc2cnc3[nH]ccc3c2n1C1CCCOC1)NCCn1ccnc1 (racemic) [Example 975]
(2) CC1(C(=O)N2CCC(n3cnc4cnc5[nH]ccc5c43)CC2)CCCN1 (racemic) [Example 251]
Smaller Ki value, 1 vs 2 ? Indicate your choice by writing its label.
1

(A) Cc1nc2cnc3[nH]ccc3c2n1C1CCC(NC(=O)N2CC(F)(F)C2)CC1 (centres unmarked) [Example 748]
(B) C[C@@H](O)c1nc2cnc3[nH]ccc3c2n1C1CCN(c2cccc(C#N)n2)CC1 [Example 702]
// compare measured Ki, left A , right B , return larger Indicate your choice by writing its label.
A
(A: 150 nM, B: 40.6 nM)

(I) COCCOC(=O)N[C@H]1CC[C@H](n2cnc3cnc4[nH]ccc4c32)CC1 [Example 356]
(II) CC(CC#N)N1CCC(n2cnc3cnc4[nH]ccc4c32)CC1 (racemic) [Example 305]
Smaller Ki value, I vs II ? Indicate your choice by writing its label.
II
(II: 17 nM, I: 209 nM)

(A) N#Cc1ccc(S(=O)(=O)N2CCC(n3cnc4cnc5[nH]ccc5c43)CC2)c(Cl)c1 [Example 446]
(B) Cc1nc2cnc3[nH]ccc3c2n1C1CCC(NS(C)(=O)=O)C1 (racemic) [Example 721]
// compare measured Ki, left A , right B , return larger Indicate your choice by writing its label.
A

====

Target: JAK2 (Homo sapiens)
Construct: made in house; host or cells: SF9 insect cells (baculovirus)
Sequence (O60674 812-1132): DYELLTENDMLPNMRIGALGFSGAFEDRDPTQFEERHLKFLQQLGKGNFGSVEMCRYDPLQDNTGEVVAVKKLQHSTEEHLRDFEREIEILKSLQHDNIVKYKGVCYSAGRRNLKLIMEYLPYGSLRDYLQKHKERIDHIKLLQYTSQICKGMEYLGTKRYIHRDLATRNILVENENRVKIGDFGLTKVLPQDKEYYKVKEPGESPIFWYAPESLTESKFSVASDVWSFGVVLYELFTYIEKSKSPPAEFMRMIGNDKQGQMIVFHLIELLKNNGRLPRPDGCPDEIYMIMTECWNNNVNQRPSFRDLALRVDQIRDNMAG
Assay: JAK2 inhibition (Table 4)
Format: biochemical
Conditions: read-out: JAK2 Ki
Measure: Ki (nM)

// below: answered molecules
Molecule: CC(C)(C)OC(=O)N1CCC[C@H](CN[C@H]2CC[C@H](n3cnc4cnc5[nH]ccc5c43)CC2)C1
Units text: nM
Ki: 397

Molecule: CN(C)C(=O)CCc1nc2cnc3[nH]ccc3c2n1C1CCCCC1
Units text: nM
Ki: 44

Molecule: Cc1noc(CN2CCC(n3c([C@@H](C)O)nc4cnc5[nH]ccc5c43)CC2)n1
Units text: nM
Ki: 30.1

(A) CC1(n2cnc3cnc4[nH]ccc4c32)CCN(Cc2cncnc2)CC1
(B) CC(C)NC(=O)[C@H]1CC[C@H](n2cnc3cnc4[nH]ccc4c32)CC1
(C) OCCOc1nc2cnc3[nH]ccc3c2n1C1CCCOC1 (racemic)
(D) Cc1nc2cnc3[nH]ccc3c2n1[C@H]1CC[C@H](C(C)(C)O)CC1
Order these by Ki, descending, and give the full ranking. # respond with the labels, arranged in the requested order
B, C, A, D

====

Biological target: JAK3 (Homo sapiens)
Construct: made in house; host or cells: SF9 insect cells (baculovirus)
Test: JAK3 inhibition (Table 4)
Type: biochemical
Details: read-out: JAK3 Ki
Measure: Ki (nM)

Sample smiles: O=S(=O)(c1ccccc1)N1CCC(n2cnc3cnc4[nH]ccc4c32)CC1
Ki (nM): 334

(P) CC(C)(C)OC(=O)N1CCC(N[C@H]2CC[C@H](n3cnc4cnc5[nH]ccc5c43)CC2)CC1
(Q) Cc1noc(CN2CC[C@H](n3c([C@@H](C)O)nc4cnc5[nH]ccc5c43)C2)n1
(R) Cn1cncc1CN[C@H]1CC[C@H](n2cnc3cnc4[nH]ccc4c32)CC1
Order these by Ki, descending, and give the full ranking. # respond with the labels, arranged in the requested order
Q, R, P

====

Biological target: TYK2 (Homo sapiens)
Sequence (P29597 873-1187): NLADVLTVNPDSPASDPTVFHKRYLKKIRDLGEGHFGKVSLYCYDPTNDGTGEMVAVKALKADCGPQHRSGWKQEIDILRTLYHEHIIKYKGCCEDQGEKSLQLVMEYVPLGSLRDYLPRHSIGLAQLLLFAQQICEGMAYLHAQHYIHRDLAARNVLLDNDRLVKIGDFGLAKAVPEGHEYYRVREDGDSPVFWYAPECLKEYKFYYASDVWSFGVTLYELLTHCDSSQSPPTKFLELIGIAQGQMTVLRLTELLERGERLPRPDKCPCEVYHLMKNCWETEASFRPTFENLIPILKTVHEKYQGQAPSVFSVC
Measure: Ki (nM)

Compound: CC(=O)NC1CCCC(n2cnc3cnc4[nH]ccc4c32)C1 (single isomer, unassigned) [Example 479]
Units text: nM
Ki: 420
--
Compound: COCCNC(=O)N(C)[C@H]1CC[C@H](n2cnc3cnc4[nH]ccc4c32)CC1 [Example 592]
Units text: nM
Ki: 215
--
Compound: O=C(Cc1nc2cnc3[nH]ccc3c2n1C1CCCOC1)N1CCCOCC1 (racemic) [Example 980]
Units text: nM
Ki: 109

(P) C[C@@H](O)c1nc2cnc3[nH]ccc3c2n1[C@H]1CC[C@H](C#N)CC1 [Example 641]
(Q) C[C@@H](O)c1nc2cnc3[nH]ccc3c2n1[C@@H]1CCCN(C(=O)CC#N)C1 [Example 661]
Smaller Ki value, P vs Q ? Indicate your choice by writing its label.
P
(P: 12.4 nM, Q: 46.2 nM)

(P) CC(=O)N1CCC(c2nc3cnc4[nH]ccc4c3n2C2CCN(C(C)CC#N)CC2)C1 (racemic) [Example 397]
(Q) COC(=O)N[C@H]1CC[C@H](n2cnc3cnc4[nH]ccc4c32)CC1 [Example 311]
(R) O=C(CC(F)(F)F)NC1CCC(n2nnc3cnc4[nH]ccc4c32)C1 (racemic) [Example 619]
(S) N#CCC1(N2CCC(n3cnc4cnc5[nH]ccc5c43)CC2)COC1 [Example 195]
Order these by Ki, descending, and give the full ranking. # respond with the labels, arranged in the requested order
P, R, Q, S
(P: 269 nM, R: 118 nM, Q: 59.8 nM, S: 2.16 nM)

(a) CC(c1ccccc1)N1CCC(n2cnc3cnc4[nH]ccc4c32)CC1 (centres unmarked) [Example 51]
(b) NC1CCCC(n2cnc3cnc4[nH]ccc4c32)C1 (single isomer, unassigned) [Example 368]
Smaller Ki value, a vs b ? Indicate your choice by writing its label.
a

(a) CN(C)c1nc2cnc3[nH]ccc3c2n1C1CCN(CCC#N)CC1 [Example 656]
(b) N#Cc1cccc(CN2CCC(n3c(CC(=O)N4CCC(F)(F)CC4)nc4cnc5[nH]ccc5c43)CC2)n1 [Example 309]
(c) O=C(O)C1CC1C(O)c1nc2cnc3[nH]ccc3c2n1C1CCCCC1 (racemic) [Example 942]
(d) C[C@@H](O)c1nc2cnc3[nH]ccc3c2n1[C@H]1CC[C@H](OCC#N)CC1 [Example 639]
Order these by Ki, descending, and give the full ranking. # respond with the labels, arranged in the requested order
b, a, c, d

(P) N#Cc1ccc(CN2CCC(n3cnc4cnc5[nH]ccc5c43)CC2)cc1 [Example 48]
(Q) Cc1nc2cnc3[nH]ccc3c2n1C1CC1 [Example 425]
// compare measured Ki, left P , right Q , return larger Indicate your choice by writing its label.
Q
(Q: 399 nM, P: 30.9 nM)
